Reference source for all entries: ChEMBL document CHEMBL1155347

- Tested on: Escherichia coli
- TEST_METHOD_NOTES: Antibacterial activity against Escherichia coli ATCC 25922 after 16 to 18 hrs by serial plate dilution method
- Format: functional
ENDPOINT_LABEL: MIC (µg/mL)

> print(dat)
                                   compound  measured.number
1  FC(F)(F)c1cccc2c(N3CCC(N4CCOCC4)CC3)c(-c3nnc(S)n3-c3ccccc3)cnc12             6.25
2  FC(F)(F)c1cccc2c(N3CCN(C4CCCCC4)CC3)c(-c3nnc(S)n3Cc3ccccc3)cnc12               50
3  FC(F)(F)c1cccc2c(NC3CCCCC3)c(-c3nnc(S)n3-c3ccccc3)cnc12             6.25

[P] FC(F)(F)c1cccc2c(Cl)c(-c3nnc(S)n3Cc3ccccc3)cnc12
[Q] CC(C)(C)CCNc1c(-c2nnc(S)n2-c2ccccc2)cnc2c(C(F)(F)F)cccc12
Request: Please let me know which one, P or Q , has a lower measured MIC value. Reply briefly: the label of your chosen item.
Response: Q
(Q: 6.25 µg/mL, P: 50 µg/mL)

----------
- Tested on: Klebsiella pneumoniae
- TEST_METHOD_NOTES: Antibacterial activity against recultured Klebsiella pneumoniae after 16 to 18 hrs by serial plate dilution method
- Type: functional
ENDPOINT_LABEL: MIC (µg/mL)

> print(dat)
                                   compound  unit.descriptor  measured.number
1  FC(F)(F)c1cccc2c(NC3CC3)c(-c3nnc(S)n3Cc3ccccc3)cnc12            µg/mL             6.25
2  COCCn1c(S)nnc1-c1cnc2c(C(F)(F)F)cccc2c1N1CC(C)OC(C)C1 (stereo not given)            µg/mL             6.25
3  NCCN1CCN(c2c(-c3nnc(S)n3Cc3ccccc3)cnc3c(C(F)(F)F)cccc23)CC1            µg/mL               50

[I] CCN1CCN(c2c(-c3nnc(S)n3CCOC)cnc3c(C(F)(F)F)cccc23)CC1
[II] CC(C)(C)CCNc1c(-c2nnc(S)n2-c2ccccc2)cnc2c(C(F)(F)F)cccc12
Request: Of the two listed items, I and II , which carries the larger MIC figure? Reply briefly: the label of your chosen item.
Response: I
(I: 50 µg/mL, II: 6.25 µg/mL)

----------
# key: entry, value: inhibition zone (IZ)
- System: Talaromyces marneffei
- TEST_METHOD_NOTES: Antifungal activity against recultured Penicillium marneffei at MIC after 3 to 4 days by agar well diffusion method
- Assay type: functional
Number only, in mm; omit the unit.

Known results for compounds:
> print(dat)
                                test.smiles  unit.descriptor  measured.number
1  COCCn1c(S)nnc1-c1cnc2c(C(F)(F)F)cccc2c1NC1CCCCC1               mm               16
2  FC(F)(F)c1cccc2c(NC3CC3)c(-c3nnc(S)n3-c3ccccc3)cnc12               mm               16
3  CC(C)(C)CCNc1c(-c2nnc(S)n2Cc2ccccc2)cnc2c(C(F)(F)F)cccc12               mm               10

Request: Using known records, supply inhibition zone (IZ) for `COCCn1c(S)nnc1-c1cnc2c(C(F)(F)F)cccc2c1Cl`
Response: 10

Request: Using known records, supply inhibition zone (IZ) for `FC(F)(F)c1cccc2c(N3CCOCC3)c(-c3nnc(S)n3-c3ccccc3)cnc12`
Response: 16

Request: Using known records, supply inhibition zone (IZ) for `COCCn1c(S)nnc1-c1cnc2c(C(F)(F)F)cccc2c1NC1CC1`
Response: 16

Request: Using known records, supply inhibition zone (IZ) for `FC(F)(F)c1cccc2c(N3CCOCC3)c(-c3nnc(S)n3Cc3ccccc3)cnc12`
Response: 10
